The compounds listed here are annotated with their IC50.
target: USP7 (Homo sapiens (Human), UniProt Q93009)
Sequence (Q93009 whole entry): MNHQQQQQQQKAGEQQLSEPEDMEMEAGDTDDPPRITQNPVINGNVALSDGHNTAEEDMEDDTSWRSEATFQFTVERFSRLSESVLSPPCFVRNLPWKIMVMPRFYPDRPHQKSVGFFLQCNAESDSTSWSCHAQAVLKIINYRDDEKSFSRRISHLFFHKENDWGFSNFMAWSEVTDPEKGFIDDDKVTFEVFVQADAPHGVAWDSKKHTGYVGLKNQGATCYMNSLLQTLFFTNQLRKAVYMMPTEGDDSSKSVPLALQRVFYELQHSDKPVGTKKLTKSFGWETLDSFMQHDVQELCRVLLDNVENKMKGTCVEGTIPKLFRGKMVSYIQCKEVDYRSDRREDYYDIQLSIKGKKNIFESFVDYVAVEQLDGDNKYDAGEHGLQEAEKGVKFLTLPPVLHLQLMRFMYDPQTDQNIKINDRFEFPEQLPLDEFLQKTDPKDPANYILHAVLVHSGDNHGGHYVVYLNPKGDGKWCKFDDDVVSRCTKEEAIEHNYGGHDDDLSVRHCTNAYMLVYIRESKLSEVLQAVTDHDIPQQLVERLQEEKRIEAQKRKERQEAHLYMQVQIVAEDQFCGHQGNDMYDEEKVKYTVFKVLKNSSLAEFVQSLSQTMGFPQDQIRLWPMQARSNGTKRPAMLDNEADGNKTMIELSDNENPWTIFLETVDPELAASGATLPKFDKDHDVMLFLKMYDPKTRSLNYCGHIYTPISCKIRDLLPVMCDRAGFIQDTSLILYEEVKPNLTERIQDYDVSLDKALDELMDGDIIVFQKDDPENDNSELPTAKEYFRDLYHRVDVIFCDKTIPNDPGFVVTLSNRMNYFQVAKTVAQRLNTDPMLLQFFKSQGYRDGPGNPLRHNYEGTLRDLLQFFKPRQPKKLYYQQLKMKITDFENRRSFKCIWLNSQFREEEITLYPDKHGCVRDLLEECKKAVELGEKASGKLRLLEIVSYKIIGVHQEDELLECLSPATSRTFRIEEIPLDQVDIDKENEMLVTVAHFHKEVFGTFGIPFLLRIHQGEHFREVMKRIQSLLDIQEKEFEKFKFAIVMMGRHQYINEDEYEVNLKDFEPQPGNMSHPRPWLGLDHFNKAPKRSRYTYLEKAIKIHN
outcome.measure: IC50 (µM)

compound	result.units	experimental.value
C#CCOc1ccc(C2C(C#N)=C(N)Oc3n[nH]c(-c4cccs4)c32)cc1Br (racemic) [Compound 6n]	µM	4.5
COc1cc(C)c(C2C(C#N)=C(N)Oc3n[nH]c(-c4cccs4)c32)cc1C(C)C (racemic) [Compound 6r]	µM	1.4
COc1ccc(C2C(C#N)=C(N)Oc3n[nH]c(-c4ccn(C)c4)c32)cc1I (racemic) [Compound 7m]	µM	1.31
N#CC1=C(N)Oc2n[nH]c(-c3cccs3)c2C1c1ccc2c(c1)CCO2 (racemic) [Compound 6o]	µM	13
N#CC1=C(N)Oc2n[nH]c(-c3cccs3)c2C1c1ccc([N+](=O)[O-])cc1 (racemic) [Compound 6g]	µM	33
COc1ccc(C2C(C#N)=C(N)Oc3n[nH]c(-c4ccccn4)c32)cc1Br (racemic) [Compound 7c]	µM	7.9
COc1ccc(C2C(C#N)=C(N)Oc3nn(C(C)=O)c(-c4cccs4)c32)cc1Br (centres unmarked) [Compound 14]	µM	0.53
N#CC1=C(N)Oc2n[nH]c(-c3cccs3)c2C1c1ccc(O)c(C(F)(F)F)c1 (racemic) [Compound 6v]	µM	0.75
COc1ccc(C2C(C#N)=C(N)Oc3n[nH]c(-c4ccsc4)c32)cc1I (racemic) [Compound 7b]	µM	5.6
COc1ccc(C2C(C#N)=C(N)Oc3n[nH]c(-c4ccccn4)c32)cc1I (racemic) [Compound 7d]	µM	4.4
COc1ccc(C2C(C#N)=C(N)Oc3n[nH]c(-c4cccnc4)c32)cc1Br (racemic) [Compound 7e]	µM	24
